- experimental_target: human AChE (hAChE; EC 3.1.1.7) (Homo sapiens, UniProt P22303)
- Sequence (P22303 32-614): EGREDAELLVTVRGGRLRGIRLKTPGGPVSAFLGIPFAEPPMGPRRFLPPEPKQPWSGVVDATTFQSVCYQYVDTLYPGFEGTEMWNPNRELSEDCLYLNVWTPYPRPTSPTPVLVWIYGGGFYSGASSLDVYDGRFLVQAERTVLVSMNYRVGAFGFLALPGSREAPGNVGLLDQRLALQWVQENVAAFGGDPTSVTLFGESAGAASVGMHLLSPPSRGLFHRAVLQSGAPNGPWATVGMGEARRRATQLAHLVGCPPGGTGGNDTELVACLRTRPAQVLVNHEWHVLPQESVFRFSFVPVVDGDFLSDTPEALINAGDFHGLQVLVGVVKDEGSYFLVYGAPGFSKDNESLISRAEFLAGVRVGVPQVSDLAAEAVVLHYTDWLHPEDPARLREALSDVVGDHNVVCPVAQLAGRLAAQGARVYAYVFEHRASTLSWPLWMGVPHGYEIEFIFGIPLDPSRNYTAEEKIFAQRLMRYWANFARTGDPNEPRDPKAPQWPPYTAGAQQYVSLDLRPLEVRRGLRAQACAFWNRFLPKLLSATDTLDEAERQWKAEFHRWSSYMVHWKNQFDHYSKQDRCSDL
- measurement_protocol: biochemical
- test_context: ratio IC50(hBChE)/IC50(hAChE)
Kindly note that classification relies on SI (hBChE/hAChE) with these boundaries: lower range = under 1, middle range = from 1 up to 3, upper range = 3 and over

Study these solved cases before continuing.
> print(dat)
                  compound.structure.string                       experimental.target  assigned.class
1            C=CCNc1c2c(nc3ccccc13)CCCC2.Cl  human AChE (hAChE; EC 3.1.1.7) (Homo sapiens, UniProt P22303)    middle range
2  C#CCNc1c2c(nc3ccc(Oc4ccccc4)cc13)CCCC2.Cl  human AChE (hAChE; EC 3.1.1.7) (Homo sapiens, UniProt P22303)     lower range

Prompt: # bin lookup: classify "C#CCN(CC#C)c1c2c(nc3ccc(OC)cc13)CCCC2.Cl" by its SI (hBChE/hAChE)
Completion: middle range

Prompt: # bin lookup: classify "C=CCNc1c2c(nc3ccc(Oc4ccccc4)cc13)CCCC2.Cl" by its SI (hBChE/hAChE)
Completion: middle range

Prompt: # bin lookup: classify "C=CCN(CC=C)c1c2c(nc3ccc(OC)cc13)CCCC2.Cl" by its SI (hBChE/hAChE)
Completion: middle range

Prompt: # bin lookup: classify "C#CCNc1c2c(nc3ccc(OC)cc13)CCCC2.Cl" by its SI (hBChE/hAChE)
Completion: middle range

Prompt: # bin lookup: classify "C=CCNc1ccnc2cc(Cl)ccc12.Cl" by its SI (hBChE/hAChE)
Completion: upper range

Prompt: # bin lookup: classify "C#CCN(CC#C)c1c2c(nc3cc(Cl)ccc13)CCCC2" by its SI (hBChE/hAChE)
Completion: upper range

Prompt: # bin lookup: classify "C#CCN(CC#C)c1c2c(nc3ccccc13)CCCC2.Cl" by its SI (hBChE/hAChE)
Completion: upper range

Prompt: # bin lookup: classify "C=CCNc1c2c(nc3ccc(OC)cc13)CCCC2.Cl" by its SI (hBChE/hAChE)
Completion: upper range

Prompt: # bin lookup: classify "C#CCNc1c2c(nc3ccccc13)CCCC2" by its SI (hBChE/hAChE)
Completion: middle range

Hello, the source for this data is paper PMC9518283, in case you need it.
